# experimental protocol: yeast display, Sf9 membrane polyspecificity reagent, FACS + sequencing; frameworks hold sequencing errors
observed property: polyreactivity (PSR sort gate)

INSERT INTO results (sequence_text, measured_value) VALUES
  ('QVQLVESGGGLVQAGGSLRLSCAASGSTFQTDTMGWYRQAPGKERELVASITWRGGRTYYADSVKGRFTISRDNAKNTVYLQMNSLKPEDTAVYYCAAVTFSYDGYDYWGQGTQVTVSS', 'low polyreactivity'),
  ('QVQLVESGGGLVQAGGSLRLSCAASGRTFYVNAMGWYRQAHGKERELVASITSGGSTYYADSVKGRFTISRDNAKNTVYLQMNSLKPEDTAVYYCAARWVQRLRHYIFYYWGQGTQGTVSS', 'high polyreactivity'),
  ('QVQLVESGGGLVQAGGSLRLSCAASGFILDWYAMGWYRQAPGKERELVAAISYSGGSTYYADSVKGRFTISRDNAKNTVYLQMNSLKPEDTAVYYCNADIWYGDMDYWGQGTQVTVSS', 'high polyreactivity'),
  ('QVQLVESGGGLVQAGGSLRLSCAASGFTFRYYAMGWYRQAPGKERELVAAITGSGGRTYYADSVKGRFTISRDNAKNTVYLQMNSLKPEDTAVYYCARDVDPRGRYYWGQGTQVTVSS', 'high polyreactivity'),
  ('QVQLVESGGGLVQAGGSLRLSCAASGFTFAFYTMGWYRQAPGKERELVAGITRSGTNTYYADSVKGRFTISRDNSKNTVYLQMNSLKPEDTSVYYCNADPRTGWYKYDYWGQGTQVTVSS', 'high polyreactivity'),
  ('QVQLVESGRGLVQAGGSLRLSCDSSGLTFTYNAMGWYRQAPGKERELVAVISYGGGSTYYADSVKGRFTISRDNAKNTVYLQMNSLNPEDNAVYYCAAVYGGYLYYYGGYAEYDYWGQGTQVTVSS', 'low polyreactivity'),
  ('QVQLVESGGGLVQAGGSLRLSCAASGRTSLVYAMGWYRQAPGKERELVAAITSSGGTTYYADSVKGRFTISRDNAKNTVYLQMNSLKPEDTAVYYCAADVDVSYWRMEYWGQGTQVTVSS', 'high polyreactivity'),
  ('QVQLVESGGGLVQAGGSLLLSCDASGLTFGYYVMGWYRQAPGKERELVASITNGGGSTYYADSVKGRFTISRDYAKNTVYLQMNSLKPEDTAVYYCAAGSYLRKFDYWGQGTQVTVSS', 'high polyreactivity'),
  ('HVQLVESGGGLVQAGGILRLSCAASGSTFVKYAMGWYRQATGKERELVAAISSRGGRTYYADSVKGRFTISRDNAKNTVYLQMNSLKPEDTAVYYCNKGTRLDGEYDYWGQGTQVTVSS', 'high polyreactivity'),
  ('QVQLVESGGGLVQAGGSLRLSCAASGSIFFYYAMGWYRQAPGKERELVAAISGGGRTNYADSVKGRFTISRDNAKNTVYLQMNSLKPEDTAVYYCAADPVYWYSPMDYWGQGTQVTVSS', 'low polyreactivity'),
  ('QVQLVESGGGLVQAGGSLRLSCAASGSTIQYYTMGWYRQAPGKERELVASITSGDSTNYADSVKGRFTISRDNAKNTVYLQMNSLKPEDTAVYYCARDRVSTQLQSSPAVSELYYWGQGTQVNVSS', 'low polyreactivity'),
  ('QVQLVESGGGLGQAGGSLRLSCAASGSIFSAYAMGWYRPAPGKERELVAGISKRGGSTYYADSVKGRFTISRDNAKNTVYLQMNSLKAEDTAVYYCTAARYTVVTKLFDYWGQGTQVTVSS', 'high polyreactivity'),
  ('QVQLVESGGALVQAGGSLRLNCAASGRTFGYNAMGWYRQAPGKERELVAAITIGGSTNYADSVKWRFTISRDNAKNNGYLQMNSLLPEDTAVYYCAAYDTLLYWVEFYYWGQGTQVTVSS', 'low polyreactivity'),
  ('QVQLVESGGGLVQAGGSHRISCAASGRTLPSYAMGWYRQAPGKERELVAAISYSGASTYYADSVKGRFTISRDNAKNTVYLQMNSLKPQDTAVYYCAVYRTFRYRYDSWGQGTQVTVSS', 'high polyreactivity'),
  ('QVQLVESGGGLVQAGGSLRLSCAASGRIFKYYDMGWYRQAPGKERELVARISSGGGRTYYADSVKGRFKISRDNAKNTVYLQMNSLKPEDTAVYYCAADPPASYHTWYGYWGQGTQVTVSS', 'high polyreactivity'),
  ('QVQLVESGGGLVQAGGSLRLSCAASGRTFVKNAMGWYRQAPGKERELVAAISSSGGSTYYADSVKGRFTISRDNAKNTVYLQMNSLKPEDTAVYYCNRYSRLYLTDDDYWGQGTQVTVSS', 'high polyreactivity'),
  ('QVQLVESGGGLVQAGGSLRLSCAASGRTFYRYAMGWYRQAPGKEREFVATISRSGGSTFYADSVKGRFTISRDNAKNTVYLQMNSLKPEDTAVYYWAAVGWYPYQMVYWGQGTQVTVSS', 'high polyreactivity'),
  ('QVHLVESGGGLVQAGGSLRLSCAASGFIFYSNMGWYRQAPGKESEFVAAITWRGGSTYADSVKRRFTISRDNAKNSVYLQMNILKPEDPAVSYCAGESYRAHTPGHPSCTRFGYWGQGTHVTVSS', 'high polyreactivity'),
  ('QVQLVESVGGLVQAGGSLRLSCAASGRISNDYAMGWYRQAPGKERELVATITFSGGDTYYADSVKGRFTISRDNAKNTVYLQMNSLKPEETAVYYCAASKWRSYSGVWWRLLFDYWGQGTQVTVSS', 'low polyreactivity'),
  ('QVQLVESGGGLVQAGGSLRLSCAASGSTFPGYAMGWYRQAPGKERELVASIYTGGSTYYADSVKGRFTISRDNAKKTVYLQMHSLKPEDSAVYYCAADSYNVSSLMYYWGQGTQVTVSS', 'low polyreactivity'),
  ('QVQLVESGGGLVQAGGSLRLSCAASGITFQRYAMGWYRQAPGKERELVAAISTNGGTTYYADSVKGRFTISRDNAKNTVYLQMNSLKPEDTAVYFCNAESGYVYYIRYNYWGQGTQVTVSS', 'high polyreactivity');

* * *

# experimental protocol: yeast display, Sf9 membrane polyspecificity reagent, FACS + sequencing; frameworks hold sequencing errors
observed property: polyreactivity (PSR sort gate)

INSERT INTO results (sequence_text, measured_value) VALUES
  ('QVQLVESGGGLVQAGGSLRLSCAASGSIIQVYAMGWYRQATGKERELVASITRTGGSTYYADSVKGRFTISRDNAKNTVYLLMNSLKPEDTAVYYCAAEKRYYYYVKYWKSDYWGQGTQVTVSS', 'low polyreactivity'),
  ('QVHLAESGGGLVQAGGSLRLSCASSGIIFYFYAMGWYRQAPGKERELVAAISGTGGRTYYADSVKGRFTISRDNAKNTVYLQMNSLKPEDTAVYYCNADDTPVPSIRFDYWGQGTQVTVSS', 'low polyreactivity'),
  ('QVQLVESGGGLVQAGGSLRLSCAASGRTFTRYAMGWYRQAPGKERELVATITRGGSTNYADSVKGRFTISRDNSKNTVYLQMNSLKPEDTAVYYCAAGYFIRTRSRYRYDYWGQGTQVTVSS', 'high polyreactivity'),
  ('QVQLVESGGGLVQAGGSLRLSCAASGYIFSRYAMGWYRQAPGKERELVAAITRSGTRTYYADSVKGRFTISRDNAKNTVYLQMNSLKPEDTAVYYCAKEYLYSSGFDYWGQGTQVTVSS', 'high polyreactivity'),
  ('QVQLVESGGGLVQAGGSLRLSCAASGNTLIVNAMGWYRQAPGKETELVAAITRDGRTNYADSVKGRFTISRDNAKNTVYLQMNSLKPEDTAVYYCAAEGVPDALDRDYWGQGTQVTVSS', 'low polyreactivity'),
  ('QVQLVESGGGLVQAGGSLRLSCAASGFTIAGYAMGWYRQAPWKERELVAAISRGGITYYADSVKGRFTISRDNAKNTVYLQMNSLKPEDTAVYYCAAGKRWSTKYGYWGQGTQVTVSS', 'high polyreactivity'),
  ('QVQLVESGGALVQAGGSLRLSCAASGSIYGGYTMGWYRHAPGKEMEFVAAISRRGGNTYYADSVKGRFTISRDNAKNTVYLQMNSLKPEDTAVYYCAVRWPSARIQVKLDYWGQGTQVTVSS', 'high polyreactivity'),
  ('QVQLVESGGGLVQAGGSLRLSCAASGITFFRYTMGWYRQAPGKEREFVADISRSGDTTYYADSVKGRFTISRDNAKNSVYLQMNSLKPEDTAVYYCARLTRSGEYGYWGQGTQVTVSS', 'high polyreactivity'),
  ('QVQLVESGGGLVQAGGSLRLSCAASGSIYVQNAMGWYRQAPGKERELVAAITFSGVDTYYADSVKGRFTISRDNAKNTVYFQMNSLKPEDTAVYYCNADRGYNLVRRSQAVVEMDYWGQGTQVTVSS', 'low polyreactivity'),
  ('QVQLVESGGGLVQAGGSLRLSCAASGRIFYPNAMGWYRQAPGKERELVAAISSGGRTNYADSVKGRFTISRDNAKNTVYLQMNSLKPEDNAVYYCAARDRSQYTSTYAFGGGYWGHGTQVTVSS', 'low polyreactivity'),
  ('QVQLVESGGGLGQAGGSLRLSCAASGRTLGIYAMGWYRQAPGKERELVAAITWSGGSTYYADSVKGRFTISRDNAKNTVYLQMNSLKPEDTAVYYCNVRSGGKRRNSGRVDYWGQGTQVTVSS', 'low polyreactivity');
